# Test system: HCC-2998 colon
# Assay notes: NCI-60 one-dose screen, 48 h
# Applied conditions: 10 µM unless noted
The panel holds about 83,000 compounds, 20% with a hit somewhere; the sample as a whole holds those more often. The source made the active and inactive calls. How the source made its calls: active means growth percent below 10; inactive means the rest.
Respond using exactly one of the listed classes: active, inactive

Assay outcome for CCCNNC(=O)c1ccc(-c2ccc(NC(=O)CCCCCCC(=O)N[C@H](C(=O)N3C[C@H](O)C[C@H]3C(=O)N[C@@H](C)c3ccc(-c4scnc4C)cc3)C(C)(C)C)cc2)cc1 : what was it?
inactive

Assay outcome for COc1ccc(/C=N/NC(=O)c2c(N)nn(C)c2Nc2ccccc2)cc1Oc1ccccc1 : what was it?
inactive

Assay outcome for Brc1cccc(-c2cc(-c3ccc4c(c3)OC=CO4)[nH]n2)c1 : what was it?
inactive

Assay outcome for COc1ccc(C2CC(c3cccc(OCCCCOc4cccc(C5=NOC(c6ccc(OC)cc6)C5)c4)c3)=NO2)cc1 (stereo unspecified) : what was it?
inactive

Assay outcome for CC(=O)c1c([Si](C)(C)C)c2cc(C#N)ccn2c1C(=O)c1ccc(Br)cc1 : what was it?
inactive

Assay outcome for COC(=O)c1ccc(NC2=C(Cl)C(=O)C(C)=C(C)C2=O)cc1 : what was it?
inactive

Assay outcome for O=C(Nc1ccc(Cl)c(C(F)(F)F)c1)Nc1ccc2oc(=O)ccc2c1 : what was it?
inactive

Assay outcome for CCNC(=O)Oc1ccc(/C(=C(/C)c2ccc(OC)cc2)c2ccc(OCCN3CCCCCC3)cc2)cc1 : what was it?
inactive

Assay outcome for COc1ccc(-c2cnc(NC(=O)CCCCCCNC(=O)C(O)(O)C(F)(F)F)s2)cc1 : what was it?
active

Assay outcome for Brc1ccc(-c2cc(-c3ccc4c(c3)OC=CO4)n[nH]2)s1 : what was it?
inactive

Assay outcome for NC(=O)c1ncn2c(=O)n(CCF)nnc12 : what was it?
inactive

Assay outcome for CCOC(=O)c1ccc(NC2=CC(=O)C(C)=C(C)C2=O)cc1 : what was it?
inactive

Assay outcome for CC(=O)c1cc(C(=O)N2c3ccccc3Sc3ccccc32)n2c1ccc1ccccc12 : what was it?
inactive

Assay outcome for O=C1Nc2ccccc2/C1=C/c1ccc(OCC(=O)c2ccccc2)cc1 : what was it?
inactive

Assay outcome for Clc1cccc(/C=N/Nc2nc(N/N=C/c3cccc(Cl)c3)nc(N3CCCCC3)n2)c1 : what was it?
inactive

Assay outcome for C=C(C)[C@@H]1CC[C@]2(C(=O)O)CC[C@]3(C)[C@H](CC[C@@H]4[C@@]5(C)C/C(=C/c6ccccn6)C(=O)C(C)(C)[C@@H]5CC[C@]43C)[C@@H]12 : what was it?
inactive

Assay outcome for Cc1ccc2c(n1)C(=O)C(Cl)=C(Nc1cccc(C(=O)OC(C)(C)C)c1)C2=O : what was it?
inactive

Assay outcome for CC1=C(C)C(=O)C(Nc2cccc(C(=O)OC(C)(C)C)c2)=C(Cl)C1=O : what was it?
inactive

Assay outcome for CC/C(=C(/c1ccc(Cl)cc1)c1ccc(OCCN)cc1)c1ccccc1 : what was it?
inactive

Assay outcome for CC1=C(C)C(=O)C(Nc2ccc3c(c2)OCCO3)=C(Br)C1=O : what was it?
inactive

Assay outcome for NC(=O)c1c(NC(=O)c2ccc(C(F)(F)F)cc2)sc2c1CCC(=O)C2 : what was it?
inactive

Assay outcome for CCCCCCNC(=O)Oc1ccc(/C(=C(/C)c2ccc(OC)cc2)c2ccc(OCCN3CCCCCC3)cc2)cc1 : what was it?
inactive

Assay outcome for O=C(CCCCCCNC(=O)C(O)(O)C(F)(F)F)Nc1ncc(-c2ccc(Br)cc2)s1 : what was it?
active

Assay outcome for O=C(CSc1cc[n+](CCCCO)c2ccccc12)n1ccc2ccccc21 : what was it?
inactive

Assay outcome for Cc1c(C(=O)/C=C/c2ccc(Cl)cc2)nnn1-c1ccc2oc(=O)ccc2c1 : what was it?
inactive

Assay outcome for O=C(/C=C/C=C/c1csc(Br)n1)NO : what was it?
inactive

Assay outcome for CC1(C)CC[C@]23CC[C@]4(C)[C@H](CC[C@@H]5[C@@]6(C)CC[C@H](N)C(C)(C)[C@@H]6CC[C@]54C)[C@H]2[C@H]1OC3 : what was it?
active

Assay outcome for C#C[C@]1(O)CC[C@H]2[C@@H]3CC=C4c5sc(Nc6cc(Cl)ccc6OC)nc5CC[C@]4(C)[C@H]3CC[C@@]21C : what was it?
inactive

Assay outcome for NC(N)=NS(=O)(=O)c1ccc(N=Nc2c(N)nn(-c3ccc([N+](=O)[O-])cc3[N+](=O)[O-])c2N)cc1 : what was it?
inactive

Assay outcome for O=C(CSc1nc2ccccc2c(=O)n1CCc1ccccc1)Nc1ccc(S(=O)(=O)Nc2ccc(Cl)nn2)cc1 : what was it?
inactive

Assay outcome for C#CCOc1ccc(-c2csc(NC(=O)C=C)n2)cc1NS(=O)(=O)c1cccc2c(N(C)C)cccc12 : what was it?
inactive

Assay outcome for CN1CCN(CCNc2nc(-c3cccc(NS(=O)(=O)c4cccc5c(N(C)C)cccc45)c3)cs2)CC1 : what was it?
inactive

Assay outcome for COc1ccc(/C=N/N=C(/c2ccccc2)c2ccc3nc(-c4ccc(Cl)cc4)[nH]c3c2)cc1 : what was it?
inactive

Assay outcome for CN(C)CCNc1ccc2ncc(C#Cc3cncc(C(=O)Nc4ccc(CN5CCN(C)CC5)c(C(F)(F)F)c4)c3)n2n1 : what was it?
active

Assay outcome for C/C(=C(\c1ccc(O)cc1)c1ccc(OCCN2CCCCCC2)cc1)c1ccc(Cl)cc1 : what was it?
active

Assay outcome for CC1=C(SCC(=O)OCCCCCC(C)C)C(=O)c2ccccc2C1=O : what was it?
inactive
